biological target: T1, human CD3 expressed on cells (Jurkat cells; human primary T cells) (human, UniProt P07766 23-207; P04234 22-171; P09693 23-182); test: flow cytometry, 25 nM, Jurkat cells
T1 construct: whole, on cells
T1 sequence (P07766 23-207, chain 1 of 3): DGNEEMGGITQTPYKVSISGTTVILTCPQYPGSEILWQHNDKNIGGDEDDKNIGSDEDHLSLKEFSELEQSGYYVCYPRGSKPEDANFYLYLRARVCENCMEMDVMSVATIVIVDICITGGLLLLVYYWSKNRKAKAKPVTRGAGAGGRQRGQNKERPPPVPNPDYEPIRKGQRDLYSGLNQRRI
T1 sequence (P04234 22-171, chain 2 of 3): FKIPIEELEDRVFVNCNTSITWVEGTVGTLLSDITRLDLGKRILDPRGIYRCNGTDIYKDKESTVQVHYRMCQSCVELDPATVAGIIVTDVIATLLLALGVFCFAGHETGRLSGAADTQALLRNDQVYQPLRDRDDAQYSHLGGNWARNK
T1 sequence (P09693 23-182, chain 3 of 3): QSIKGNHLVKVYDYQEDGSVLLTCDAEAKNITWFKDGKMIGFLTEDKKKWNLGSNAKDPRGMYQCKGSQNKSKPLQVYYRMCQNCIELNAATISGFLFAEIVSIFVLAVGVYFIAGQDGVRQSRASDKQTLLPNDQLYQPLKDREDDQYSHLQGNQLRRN
Some binders, each annotated with its measured Binding (FOI).
Write the answer as a number in FOI, unit excluded.

Example binders with recorded Binding (FOI):
* mAb 176 (antibody, V domains shown, VH/VL only) VH: EVELVESGGGLVQPGRSLRLSCAASGFKFDDYTMHWVRLPPGKGLEWVSGISWNSGTIDYGDSVKGRFTISRDNAKNSLYLQMNSLRVEDTALYYCAKDTSGYGHYFYYYMDVWGKGTTVTVSS VL: DIQMTQSPSSLSASIGDRVSITCRTSQIINNYLNWYQQKPGKAPKVLIYSASSLQSGVPSRFSGSGSGTDFTLTINSLQPEDFATYYCQQSYNFPITFGQGTRLELK | 114
* mAb 284 (antibody, V domains shown, VH/VL only) VH: EVQLLESGGGLVQPGGSLRLSCAASGFTFSSYAMSWVRQAPGKGLEWVSAISGSSGRTYYTDSVKGRFTISRDNSKNTLSLQMNSLRAEDTAVYYCAKKYSYYYYYMDVWGKGTTVTVSS VL: SYELTQPLSVSVALGQTAKITCGGNNIGSKNVHWYQQKPGQAPVLVIYRDSNRPSGIPERFSGSNSGNTATLTISRAQAGDEADYYCQVWDSSTAVFGGGTQLTAL | 226
* mAb 197 (antibody, V domains shown, VH/VL only) VH: QVQLVESGGGVVQPGGSLRLSCAASGFTFSGYGMHWVRQAPGKGLEWVAIIWYNGRKTYYAESVKGRFTISRDNSKNTLSLQMNSLRVEDTAVYYCTTGQGYNWFDPWGQGTLVTVSS VL: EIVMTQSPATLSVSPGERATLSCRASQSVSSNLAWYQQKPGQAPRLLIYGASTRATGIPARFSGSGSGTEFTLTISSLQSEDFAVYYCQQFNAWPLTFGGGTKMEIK | 183
* mAb 257 (antibody, V domains shown, VH/VL only; the printed VH holds a letter U) VH: QVQLQQSGPGLVKPSQTLSLTCAISGDSVSSNYASWNWIRQSPSRGLEWLGRTYYRSKWYNDFAVSVRSRVTINADTSKNQFSLHLSSVTPEDTAIYFCAREANGRGYFYYMDVWGKGTTVTVSS VL: EIVLTQSPDFQSVTPKEKVTITCRASQSIGSSLHWYQQKPDQSPKLLIKYASQSISGVPSRFSGSGSGTVFTLTINSLEAEDAAAYFCHQSSGSPHTFGGGTKVEIK | 62.3

Turning to the following binder.
query: Entry mAb 193 (antibody, V domains shown, VH/VL only) VH: QVQLVESGGGVVQPGRSLRLSCAASGFTFSGYGMHWVRQAPGKGLEWVAIIYYNGNNRKYADSVKGRFTISRDNSKNTVSLQMNSLRVEDTAIYYCTRGDGYNWFVTWGQGTLVTVSS VL: EIVMTQSPATLSVSPGERATLSCRASQSVSSNLAWYHQKPGQAPRLLIYGASTRATGIPVRFSGSGSGTEFTLTISSLQSDDFAVYYCQQYNNWPLTFGGGTKVEIK has what Binding (FOI)?
result: 163
